Entry source: ChEMBL document CHEMBL2218924

Target: Serine/threonine-protein kinase STK11 (Homo sapiens) (UniProt Q15831)
Sequence (Q15831 whole entry): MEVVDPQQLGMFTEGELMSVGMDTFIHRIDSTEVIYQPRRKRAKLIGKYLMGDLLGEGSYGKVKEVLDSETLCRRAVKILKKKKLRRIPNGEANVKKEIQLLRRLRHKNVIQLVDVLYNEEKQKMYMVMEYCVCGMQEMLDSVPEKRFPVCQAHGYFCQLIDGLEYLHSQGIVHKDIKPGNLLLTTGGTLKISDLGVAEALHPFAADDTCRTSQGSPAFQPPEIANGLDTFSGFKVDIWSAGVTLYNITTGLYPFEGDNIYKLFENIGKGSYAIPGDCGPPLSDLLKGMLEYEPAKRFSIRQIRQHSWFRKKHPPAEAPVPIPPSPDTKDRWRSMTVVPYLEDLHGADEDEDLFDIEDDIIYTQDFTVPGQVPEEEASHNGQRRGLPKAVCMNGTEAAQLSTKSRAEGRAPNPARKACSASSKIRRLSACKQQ
Conditions: at 10 µM
Measured residual activity by item

- smiles-entry: "Nc1cccc(-c2cc3c(Oc4cccc(O)c4)ncnc3[nH]2)c1"
  target-under-test: "Serine/threonine-protein kinase STK11 (Homo sapiens) (UniProt Q15831)"
  residual activity (%): 11
- smiles-entry: "O=C1NC(=O)/C(=C\\c2ccc3nccnc3c2)S1"
  target-under-test: "Serine/threonine-protein kinase STK11 (Homo sapiens) (UniProt Q15831)"
  residual activity (%): 78
- smiles-entry: "Cn1cc(/C=C2\\C(=O)Nc3ccc(S(N)(=O)=O)cc32)c2ccccc21"
  target-under-test: "Serine/threonine-protein kinase STK11 (Homo sapiens) (UniProt Q15831)"
  residual activity (%): 100
- smiles-entry: "COc1ccc(C(=O)Nc2sc3c(c2C(N)=O)CCCC3)cc1OC"
  target-under-test: "Serine/threonine-protein kinase STK11 (Homo sapiens) (UniProt Q15831)"
  residual activity (%): 105
- smiles-entry: "c1ccc(-c2n[nH]cc2-c2ccnc3ccccc23)nc1"
  target-under-test: "Serine/threonine-protein kinase STK11 (Homo sapiens) (UniProt Q15831)"
  residual activity (%): 94
- smiles-entry: "Oc1c2ccccc2c2c3c(cccc13)N=N2"
  target-under-test: "Serine/threonine-protein kinase STK11 (Homo sapiens) (UniProt Q15831)"
  residual activity (%): 41
- smiles-entry: "COc1cc2ncnc(Nc3ccc(NC(=O)c4ccccc4)cc3)c2cc1OC"
  target-under-test: "Serine/threonine-protein kinase STK11 (Homo sapiens) (UniProt Q15831)"
  residual activity (%): 109
- smiles-entry: "Cc1nc(-c2ccccc2)c(-c2ccncc2)o1"
  target-under-test: "Serine/threonine-protein kinase STK11 (Homo sapiens) (UniProt Q15831)"
  residual activity (%): 100
- smiles-entry: "COc1ccc(CNc2nc(N(CCO)CCO)nc3c2ncn3C(C)C)cc1"
  target-under-test: "Serine/threonine-protein kinase STK11 (Homo sapiens) (UniProt Q15831)"
  residual activity (%): 73
- smiles-entry: "CC(=O)O/N=C1\\C(=C2\\C(=O)Nc3cc(Br)ccc32)Nc2ccccc21"
  target-under-test: "Serine/threonine-protein kinase STK11 (Homo sapiens) (UniProt Q15831)"
  residual activity (%): 92
- smiles-entry: "CC(C)n1cnc2c(NCc3ccccc3)nc(NCCCO)nc21"
  target-under-test: "Serine/threonine-protein kinase STK11 (Homo sapiens) (UniProt Q15831)"
  residual activity (%): 101

====

Molecular target: Serine/threonine-protein kinase BRSK1 (Homo sapiens)
Conditions: at 1 µM
Label Satisfied for high-side residual activity (at or above 80%) and Not satisfied for low-side residual activity (below it).

- molecule: "CC(C)n1cnc2/c(=N/c3cccc(Cl)c3)nc(NCCO)[nH]c21"
  target-under-test: "Serine/threonine-protein kinase BRSK1 (Homo sapiens)"
  class-name: "Satisfied"
- molecule: "CC(=O)O/N=C1\\C(=C2\\C(=O)Nc3cc(Br)ccc32)Nc2ccccc21"
  target-under-test: "Serine/threonine-protein kinase BRSK1 (Homo sapiens)"
  class-name: "Not satisfied"
- molecule: "Cc1ccc(S(=O)(=O)/C=C/C#N)cc1"
  target-under-test: "Serine/threonine-protein kinase BRSK1 (Homo sapiens)"
  class-name: "Satisfied"
- molecule: "Nc1nc(Nc2ccc(S(N)(=O)=O)cc2)nn1C(=S)Nc1c(F)cccc1F"
  target-under-test: "Serine/threonine-protein kinase BRSK1 (Homo sapiens)"
  class-name: "Not satisfied"
- molecule: "O=C1NC(=O)/C(=C/c2ccc3c(c2)OC(F)(F)O3)S1"
  target-under-test: "Serine/threonine-protein kinase BRSK1 (Homo sapiens)"
  class-name: "Satisfied"
- molecule: "Cc1nc(-c2ccccc2)c(-c2ccncc2)o1"
  target-under-test: "Serine/threonine-protein kinase BRSK1 (Homo sapiens)"
  class-name: "Satisfied"
- molecule: "NC(=O)c1ccc2[nH]c(-c3ccc(Oc4ccc(Cl)cc4)cc3)nc2c1"
  target-under-test: "Serine/threonine-protein kinase BRSK1 (Homo sapiens)"
  class-name: "Satisfied"
- molecule: "Nc1cccc(-c2cc3c(Oc4cccc(O)c4)ncnc3[nH]2)c1"
  target-under-test: "Serine/threonine-protein kinase BRSK1 (Homo sapiens)"
  class-name: "Not satisfied"
- molecule: "COc1cc2ncnc(Nc3ccc(O)c(Br)c3)c2cc1OC"
  target-under-test: "Serine/threonine-protein kinase BRSK1 (Homo sapiens)"
  class-name: "Not satisfied"
- molecule: "c1ccc2c(-c3ccncc3)c[nH]c2c1"
  target-under-test: "Serine/threonine-protein kinase BRSK1 (Homo sapiens)"
  class-name: "Not satisfied"
- molecule: "O=C1Nc2cc(Br)ccc2/C1=C1/Nc2ccccc2/C1=N\\O"
  target-under-test: "Serine/threonine-protein kinase BRSK1 (Homo sapiens)"
  class-name: "Not satisfied"
- molecule: "CC[n+]1c(/C=C/N(C)c2ccccc2)n(-c2ccccc2)c2ccc(-c3nc4ccccc4s3)cc21"
  target-under-test: "Serine/threonine-protein kinase BRSK1 (Homo sapiens)"
  class-name: "Not satisfied"
- molecule: "CO[C@@H]1[C@H](N(C)C(=O)c2ccccc2)C[C@H]2O[C@]1(C)n1c3ccccc3c3c4c(c5c6ccccc6n2c5c31)C(=O)NC4"
  target-under-test: "Serine/threonine-protein kinase BRSK1 (Homo sapiens)"
  class-name: "Not satisfied"
- molecule: "CO[C@H]1[C@@H](OC)C[C@H](C)[C@@H](OC)C2=CC(=O)C=C(NC(=O)/C(C)=C/C=C/[C@H](OC)[C@@H](OC(N)=O)/C(C)=C/[C@@H]1C)C2=O"
  target-under-test: "Serine/threonine-protein kinase BRSK1 (Homo sapiens)"
  class-name: "Not satisfied"
- molecule: "Cn1cc(/C=C2\\C(=O)Nc3ccc(S(N)(=O)=O)cc32)c2ccccc21"
  target-under-test: "Serine/threonine-protein kinase BRSK1 (Homo sapiens)"
  class-name: "Not satisfied"
- molecule: "CCN(CC)C(=O)c1ccc(Nc2nc(OCC3CCCCC3)c3nc[nH]c3n2)cc1"
  target-under-test: "Serine/threonine-protein kinase BRSK1 (Homo sapiens)"
  class-name: "Not satisfied"
- molecule: "O=C1Nc2ccccc2/C1=C1/Nc2ccccc2/C1=N\\OCCC(O)CO (stereo not given)"
  target-under-test: "Serine/threonine-protein kinase BRSK1 (Homo sapiens)"
  class-name: "Not satisfied"
- molecule: "Oc1n[nH]c2nnc(-c3c(-c4ccccc4)nn4ccccc34)cc12"
  target-under-test: "Serine/threonine-protein kinase BRSK1 (Homo sapiens)"
  class-name: "Satisfied"

====

Measured residual activity by item
Target: Ephrin type-A receptor 7 (Homo sapiens)
Conditions: at 10 µM
parameter-measured: residual activity (%)

- smiles-entry: "N#CC(C#N)=C(N)/C(C#N)=C/c1ccc(O)cc1"
  target-under-test: "Ephrin type-A receptor 7 (Homo sapiens)"
  units: "%"
  assay-result: 81
- smiles-entry: "COc1ccc(S(=O)(=O)N(CCO)c2ccccc2CN(C)C/C=C/c2ccc(Cl)cc2)cc1"
  target-under-test: "Ephrin type-A receptor 7 (Homo sapiens)"
  units: "%"
  assay-result: 96
- smiles-entry: "Cc1cc(Nc2nc(-c3ccccc3)nc3ccccc23)n[nH]1"
  target-under-test: "Ephrin type-A receptor 7 (Homo sapiens)"
  units: "%"
  assay-result: 6
- smiles-entry: "O=C(Nc1cccc(Nc2cc(Nc3cccc(C(F)(F)F)c3)ncn2)c1)C1CC1"
  target-under-test: "Ephrin type-A receptor 7 (Homo sapiens)"
  units: "%"
  assay-result: 86
- smiles-entry: "Cc1ccc(S(=O)(=O)/C=C/C#N)cc1"
  target-under-test: "Ephrin type-A receptor 7 (Homo sapiens)"
  units: "%"
  assay-result: 96
- smiles-entry: "CCC(=O)Nc1ccc2ncnc(Nc3cccc(Br)c3)c2c1"
  target-under-test: "Ephrin type-A receptor 7 (Homo sapiens)"
  units: "%"
  assay-result: 76
- smiles-entry: "CN(C)c1ccc(/C=C2\\C(=O)Nc3ccccc32)cc1"
  target-under-test: "Ephrin type-A receptor 7 (Homo sapiens)"
  units: "%"
  assay-result: 89
- smiles-entry: "O=Nc1c(-c2c(O)[nH]c3ccccc23)[nH]c2ccccc12"
  target-under-test: "Ephrin type-A receptor 7 (Homo sapiens)"
  units: "%"
  assay-result: 15
- smiles-entry: "COc1cc2ncnc(Nc3ccc(O)c(Br)c3)c2cc1OC"
  target-under-test: "Ephrin type-A receptor 7 (Homo sapiens)"
  units: "%"
  assay-result: 7
- smiles-entry: "CC(C)n1cnc2/c(=N/c3cccc(Cl)c3)nc(NCCO)[nH]c21"
  target-under-test: "Ephrin type-A receptor 7 (Homo sapiens)"
  units: "%"
  assay-result: 43
- smiles-entry: "COc1ccc(CNc2nc(N(CCO)CCO)nc3c2ncn3C(C)C)cc1"
  target-under-test: "Ephrin type-A receptor 7 (Homo sapiens)"
  units: "%"
  assay-result: 73

====

Target: Tyrosine-protein kinase ABL1 (Homo sapiens)
Conditions: at 1 µM
Measured residual activity by item

- smiles-entry: "O=C1NC(=O)/C(=C/c2ccc3c(c2)OC(F)(F)O3)S1"
  units: "%"
  residual activity: 103
- smiles-entry: "O=C1c2ccccc2-[n+]2ccc3c([nH]c4ccccc43)c21"
  units: "%"
  residual activity: 102
- smiles-entry: "CO[C@@H]1[C@H](N(C)C(=O)c2ccccc2)C[C@H]2O[C@]1(C)n1c3ccccc3c3c4c(c5c6ccccc6n2c5c31)C(=O)NC4"
  units: "%"
  residual activity: 89
- smiles-entry: "CC(=O)O/N=C1\\C(=C2\\C(=O)Nc3cc(Br)ccc32)Nc2ccccc21"
  units: "%"
  residual activity: 60
- smiles-entry: "Cc1nc(-c2ccccc2)c(-c2ccncc2)o1"
  units: "%"
  residual activity: 26
- smiles-entry: "CCN(CC)CCCCN1c2ccccc2Oc2ccc(Cl)cc21"
  units: "%"
  residual activity: 124
- smiles-entry: "O=Nc1c(-c2c(O)[nH]c3ccccc23)[nH]c2ccccc12"
  units: "%"
  residual activity: 49
- smiles-entry: "Oc1n[nH]c2nnc(-c3c(-c4ccccc4)nn4ccccc34)cc12"
  units: "%"
  residual activity: 81
- smiles-entry: "COc1cccc(-c2cc(=O)c3ccccc3o2)c1N"
  units: "%"
  residual activity: 111
- smiles-entry: "CCOc1cc2ncnc(Nc3cccc(Br)c3)c2cc1OCC"
  units: "%"
  residual activity: 48
- smiles-entry: "CO[C@H]1[C@@H](OC)C[C@H](C)[C@@H](OC)C2=CC(=O)C=C(NC(=O)/C(C)=C/C=C/[C@H](OC)[C@@H](OC(N)=O)/C(C)=C/[C@@H]1C)C2=O"
  units: "%"
  residual activity: 94
- smiles-entry: "O=C(Nc1cccc(Nc2nccc(Nc3cccc(C(F)(F)F)c3)n2)c1)C1CC1"
  units: "%"
  residual activity: 68
- smiles-entry: "Nc1n[nH]c2nnc(-c3c(-c4ccccc4)nn4ccccc34)cc12"
  units: "%"
  residual activity: 64
- smiles-entry: "COc1ccc(OC)c2c(=S)c3ccccc3[nH]c12"
  units: "%"
  residual activity: 97
